meta.source: patent US11661431B2

- Tested system: TLR8 (Homo sapiens (Human))
- Sequence (Q9NR97 27-1041): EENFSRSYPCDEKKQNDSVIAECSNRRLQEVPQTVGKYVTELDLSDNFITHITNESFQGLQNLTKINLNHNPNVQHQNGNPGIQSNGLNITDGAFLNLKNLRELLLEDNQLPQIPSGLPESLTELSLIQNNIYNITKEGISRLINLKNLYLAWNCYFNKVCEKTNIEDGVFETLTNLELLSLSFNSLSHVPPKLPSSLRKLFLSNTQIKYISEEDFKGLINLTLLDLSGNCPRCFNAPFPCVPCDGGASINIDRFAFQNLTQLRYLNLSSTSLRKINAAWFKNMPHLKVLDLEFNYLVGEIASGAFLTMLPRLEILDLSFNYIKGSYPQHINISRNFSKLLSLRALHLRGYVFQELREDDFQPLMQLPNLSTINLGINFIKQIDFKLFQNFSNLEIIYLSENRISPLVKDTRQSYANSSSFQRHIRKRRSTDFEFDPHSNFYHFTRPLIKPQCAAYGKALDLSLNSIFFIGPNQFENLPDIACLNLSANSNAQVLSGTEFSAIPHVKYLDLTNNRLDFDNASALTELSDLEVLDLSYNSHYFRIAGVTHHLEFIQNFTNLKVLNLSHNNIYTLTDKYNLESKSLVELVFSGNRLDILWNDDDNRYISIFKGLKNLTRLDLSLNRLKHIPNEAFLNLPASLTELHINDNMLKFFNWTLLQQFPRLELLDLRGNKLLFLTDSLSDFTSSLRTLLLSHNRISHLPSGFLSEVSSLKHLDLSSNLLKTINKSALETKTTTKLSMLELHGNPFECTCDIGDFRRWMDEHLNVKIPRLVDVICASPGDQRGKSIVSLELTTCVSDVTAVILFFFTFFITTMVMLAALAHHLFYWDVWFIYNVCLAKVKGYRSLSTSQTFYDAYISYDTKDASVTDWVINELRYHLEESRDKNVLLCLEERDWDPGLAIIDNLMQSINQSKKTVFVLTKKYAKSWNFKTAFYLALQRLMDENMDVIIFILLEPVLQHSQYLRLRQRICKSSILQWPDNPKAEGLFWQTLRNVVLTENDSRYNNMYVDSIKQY
- Assay notes: TLR8 human peripheral blood mononuclear cell (PBMC) cell-based assay (Compound A as agonist; TNFα and IL12p40 readout)
- Condition label: human PBMCs, TLR8 agonist Compound A at 800 nM, 6 hours, antagonist potency; read-out: TLR-8 EC50
Give measured pEC50 for each item. Keep answers brief.
Would you please state pEC50, meaning minus log10 of the concentration in mol/L, as a bare number?

Query block: Given the entry `Cc1c(-c2[nH]c3sc([C@@H]4C[C@@H]5C[C@H]4CN5C(=O)[C@H]4C[C@H](F)CN4)c(C)c3c2C(C)C)cn2ncnc2c1C` , report its measured pEC50.
Result block: 7.80

Query block: Next up: `Cc1c(C2CCN(C(=O)[C@H]3COC(C)(C)CN3)CC2)sc2[nH]c(-c3cc(C)c4ncnn4c3)c(C(C)C)c12`
Result block: 7.21

Query block: Next record, please: `Cc1c(C2CCNCC2)sc2[nH]c(-c3cc(C)c4nnnn4c3)c(C(C)C)c12`
Result block: 8.09

Query block: Same question for Cc1c(C2C3CNCC32)sc2[nH]c(-c3cc(C)c4ncnn4c3)c(C(C)C)c12 (stereo not shown) please.
Result block: 9.44

Query block: Here is the next compound: `COCc1c(C2CCNCC2)sc2[nH]c(-c3cc(C)c4ncnn4c3)c(C(C)C)c12`
Result block: 8.44

Query block: Another compound: `Cc1c(-c2[nH]c3sc(C4CCN(C(=O)[C@H]5CO[C@@H](C(F)(F)F)CN5)CC4)c(C)c3c2C(C)C)cn2ncnc2c1C`
Result block: 6.89

Query block: Would you kindly repeat that for Cc1c(C2CCC(C(=O)N3CCNCC3)CC2)sc2[nH]c(-c3cc(C)c4ncnn4c3)c(C(C)C)c12 (stereo not shown) ?
Result block: 8.00

Query block: Same thing, different compound: `Cc1c(-c2[nH]c3sc([C@@H]4C[C@@H]5C[C@H]4CN5CC(=O)NC[C@@H](F)C(C)(C)O)c(C)c3c2C(C)C)cn2ncnc2c1C`
Result block: 9.00

Query block: What would you report for Cc1c(C2CCCN(CC(N)=O)CC2)sc2[nH]c(-c3cc(C)c4ncnn4c3)c(C(C)C)c12 (single isomer, unassigned) [Example 263] ?
Result block: 7.73

Query block: And then `Cc1c(C2CC3(CNC3)C2)sc2[nH]c(-c3cc(C)c4ncnn4c3)c(C(C)C)c12` , what is it?
Result block: 8.76

* * *

- Tested system: TLR7 (Homo sapiens (Human), UniProt Q9NYK1)
- Sequence (Q9NYK1 27-1049): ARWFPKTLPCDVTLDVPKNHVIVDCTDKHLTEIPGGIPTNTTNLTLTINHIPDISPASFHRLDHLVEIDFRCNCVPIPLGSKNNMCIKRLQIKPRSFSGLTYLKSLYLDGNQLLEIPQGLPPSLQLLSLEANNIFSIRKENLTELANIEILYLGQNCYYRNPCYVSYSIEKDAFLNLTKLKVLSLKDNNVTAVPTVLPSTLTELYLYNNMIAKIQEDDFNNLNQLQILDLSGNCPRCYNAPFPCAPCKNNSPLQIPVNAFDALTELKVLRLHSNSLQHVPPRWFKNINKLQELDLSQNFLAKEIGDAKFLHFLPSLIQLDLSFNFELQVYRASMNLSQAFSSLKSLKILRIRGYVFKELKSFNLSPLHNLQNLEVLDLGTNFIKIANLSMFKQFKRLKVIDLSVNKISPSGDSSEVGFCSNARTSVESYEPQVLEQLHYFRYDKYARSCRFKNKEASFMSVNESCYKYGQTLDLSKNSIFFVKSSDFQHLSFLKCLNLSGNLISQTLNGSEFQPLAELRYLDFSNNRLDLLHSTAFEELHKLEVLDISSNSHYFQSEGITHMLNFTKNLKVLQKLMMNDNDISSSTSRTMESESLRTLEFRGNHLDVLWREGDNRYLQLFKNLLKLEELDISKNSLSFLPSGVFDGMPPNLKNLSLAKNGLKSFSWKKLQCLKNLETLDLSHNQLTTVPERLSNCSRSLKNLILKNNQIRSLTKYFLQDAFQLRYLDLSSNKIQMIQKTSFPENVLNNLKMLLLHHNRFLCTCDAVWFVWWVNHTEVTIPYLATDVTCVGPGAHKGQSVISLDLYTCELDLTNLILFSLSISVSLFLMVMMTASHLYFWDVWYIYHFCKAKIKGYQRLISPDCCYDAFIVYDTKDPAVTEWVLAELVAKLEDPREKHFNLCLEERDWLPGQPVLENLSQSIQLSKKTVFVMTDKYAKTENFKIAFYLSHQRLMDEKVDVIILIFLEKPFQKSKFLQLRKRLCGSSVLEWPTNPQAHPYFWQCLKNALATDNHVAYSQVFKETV
- Assay notes: TLR7 human peripheral blood mononuclear cell (PBMC) cell-based assay (GS-986 as agonist; IL-6 and IFNα readout)
- Condition label: human PBMCs, TLR7 agonist GS-986 at 400 nM, 6 hours, antagonist potency; read-out: TLR-7 EC50
Classify on EC50 using L = under 0.3 nM, M = from 0.3 nM up to 2 nM, H = 2 nM and over

Query block: Band for the recorded EC50 of Cc1c(-c2[nH]c3sc(C45CCNCC4C5)c(C)c3c2C(C)C)cn2ncnc2c1C (centres unmarked) [Example 77] ?
Result block: L

Query block: Okay, and CNS(=O)(=O)CCN1C[C@@H]2C[C@H]1C[C@H]2c1sc2[nH]c(-c3cn4ncnc4c(C)c3C)c(C(C)C)c2c1C [Example 182] ?
Result block: L

Query block: Then what about the compound Cc1c(-c2[nH]c3sc(C4C[C@@H]5C[C@H]4CC5N4CCS(=O)(=O)CC4)c(C)c3c2C(C)C)cn2ncnc2c1C (some centres unmarked) [Example 256] ?
Result block: H

Query block: Cc1c(-c2[nH]c3sc(C4CC(C(=O)N5CCNCC5)C4)c(C)c3c2C(C)C)cn2ncnc2c1C (single isomer, unassigned) [Example 239] ?
Result block: L

Query block: Now try Cc1c(-c2[nH]c3sc([C@@H]4C[C@@H]5C[C@H]4CN5CC(=O)NCCO)c(C)c3c2C(C)C)cn2ncnc2c1C [Example 267] .
Result block: M

Query block: Same read-out for Cc1c(-c2[nH]c3sc(C4CC(C(=O)N5CCNCC5)C4)c(C)c3c2C(C)C)cn2ncnc2c1C (single isomer, unassigned) [Example 238] ?
Result block: M

Query block: Now try Cc1c(C23CN(CC(N)=O)CC2C3(F)F)sc2[nH]c(-c3cc(C)c4ncnn4c3)c(C(C)C)c12 (centres unmarked) [Example 200] .
Result block: H

Query block: Also need Cc1c(-c2[nH]c3sc(C4C[C@H]5C[C@@H]4N(CC(N)=O)C5)c(C)c3c2C(C)C)cn2ncnc2c1C (some centres unmarked) [Example 114] , thanks.
Result block: M

Query block: Then Cc1cc(-c2[nH]c3sc(C4CCN(CC(N)=O)CC4)c(C(F)F)c3c2C(C)C)cn2ncnc12 [Example 162] ?
Result block: H

Query block: Cool, now Cc1cc(-c2[nH]c3sc(C4CCN(C(=O)[C@H]5COCCN5)CC4)cc3c2C(C)C)cn2ncnc12 [Example 57]
Result block: L

Query block: Input Cc1c(C2CC3COCC(C2)N3CC(N)=O)sc2[nH]c(-c3cc(C)c4ncnn4c3)c(C(C)C)c12 (centres unmarked) [Example 30]
Result block: H

Query block: Then Cc1c(CC2CCNCC2)sc2[nH]c(-c3cc(C)c4ncnn4c3)c(C(C)C)c12 [Example 278] ?
Result block: L

Query block: Cc1c(-c2[nH]c3sc(C4CCN(C(=O)[C@@H]5C[C@@H]6OCC[C@@H]6N5)CC4)c(C)c3c2C(C)C)cn2ncnc2c1C [Example 143] , same question.
Result block: H

Query block: Field entry: Cc1c(C(=O)N(C)C2CCN(CCO)CC2)sc2[nH]c(-c3cc(C)c4ncnn4c3)c(C(C)C)c12 [Example 7]
Result block: L
